target: BRM (Homo sapiens, UniProt P51531); construct: Western Blot Screen of BRM Degradation in SW1573 Cells; endogenous in cells; host or cells: SW1573 cells; test: BRM degradation (Dmax and DC50) in SW1573 cells, Western blot screen / In-Cell Western screen; assay type: cell-based; settings: overnight (18-20 hours) treatment
Sequence (P51531 whole entry): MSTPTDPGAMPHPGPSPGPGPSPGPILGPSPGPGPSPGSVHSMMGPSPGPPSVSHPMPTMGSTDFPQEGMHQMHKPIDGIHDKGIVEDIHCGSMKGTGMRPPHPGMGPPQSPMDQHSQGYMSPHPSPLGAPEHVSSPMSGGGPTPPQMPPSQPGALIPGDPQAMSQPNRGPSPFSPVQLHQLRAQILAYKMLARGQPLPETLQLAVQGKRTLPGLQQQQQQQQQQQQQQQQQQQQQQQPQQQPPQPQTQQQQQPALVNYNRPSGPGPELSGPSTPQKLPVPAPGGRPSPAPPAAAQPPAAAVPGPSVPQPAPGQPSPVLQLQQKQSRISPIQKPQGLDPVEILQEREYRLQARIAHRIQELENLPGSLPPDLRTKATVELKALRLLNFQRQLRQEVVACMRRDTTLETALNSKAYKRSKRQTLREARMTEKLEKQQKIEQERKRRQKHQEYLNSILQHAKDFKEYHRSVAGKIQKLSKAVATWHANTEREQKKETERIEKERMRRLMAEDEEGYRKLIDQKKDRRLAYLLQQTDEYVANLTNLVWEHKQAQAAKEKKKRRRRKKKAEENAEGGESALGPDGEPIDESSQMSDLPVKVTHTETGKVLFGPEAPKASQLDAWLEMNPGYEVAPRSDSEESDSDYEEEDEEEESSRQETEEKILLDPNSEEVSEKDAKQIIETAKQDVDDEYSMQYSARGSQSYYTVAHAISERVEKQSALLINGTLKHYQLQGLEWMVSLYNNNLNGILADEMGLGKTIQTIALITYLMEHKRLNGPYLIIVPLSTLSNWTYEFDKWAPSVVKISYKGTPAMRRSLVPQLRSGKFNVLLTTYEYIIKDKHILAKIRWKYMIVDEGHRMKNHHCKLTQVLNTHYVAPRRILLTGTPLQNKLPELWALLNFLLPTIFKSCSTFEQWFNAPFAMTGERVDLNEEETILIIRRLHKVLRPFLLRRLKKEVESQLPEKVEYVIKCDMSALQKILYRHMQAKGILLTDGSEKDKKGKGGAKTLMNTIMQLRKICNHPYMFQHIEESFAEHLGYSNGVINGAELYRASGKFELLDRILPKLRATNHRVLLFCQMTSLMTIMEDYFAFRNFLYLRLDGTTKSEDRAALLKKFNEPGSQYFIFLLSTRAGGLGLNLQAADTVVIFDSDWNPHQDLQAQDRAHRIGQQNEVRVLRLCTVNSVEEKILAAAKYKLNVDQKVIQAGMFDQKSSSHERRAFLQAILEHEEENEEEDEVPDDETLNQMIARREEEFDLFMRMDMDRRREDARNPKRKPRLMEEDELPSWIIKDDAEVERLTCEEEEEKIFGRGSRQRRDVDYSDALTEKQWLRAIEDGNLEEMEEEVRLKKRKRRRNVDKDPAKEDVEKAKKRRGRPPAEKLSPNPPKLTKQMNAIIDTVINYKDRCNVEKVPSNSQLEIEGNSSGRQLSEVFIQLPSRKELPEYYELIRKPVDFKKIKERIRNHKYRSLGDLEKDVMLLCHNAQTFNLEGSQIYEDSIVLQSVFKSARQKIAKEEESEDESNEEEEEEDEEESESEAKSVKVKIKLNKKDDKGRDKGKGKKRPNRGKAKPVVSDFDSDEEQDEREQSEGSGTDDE

chemSmiles	DC50
Cc1ncsc1-c1ccc([C@H](C)NC(=O)[C@@H]2C[C@@H](O)CN2C(=O)[C@@H](c2cc(N3CCN(C(=O)[C@H]4C[C@H](Oc5cc(N6C7CCC6CN(c6cc(-c8ccccc8O)nnc6N)C7)ccn5)C4)CC3)no2)C(C)C)cc1	≥ 30 nM
Cc1ncsc1-c1ccc([C@H](C)NC(=O)[C@@H]2C[C@@H](O)CN2C(=O)[C@@H](c2cc(N3CCC(CN4CCC(N5CCC6(CC5)CC(Oc5cc(N7C8CCC7CN(c7cc(-c9ccccc9O)nnc7N)C8)ccn5)C6)CC4)CC3)no2)C(C)C)cc1	< 2.5 nM
Cc1ncsc1-c1ccc([C@H](C)NC(=O)[C@@H]2C[C@@H](O)CN2C(=O)[C@@H](c2cc(OCCN3CCC(O[C@H]4C[C@H](OC(=O)N5CCN(c6cc(-c7ccccc7O)nnc6N)CC5)C4)CC3)no2)C(C)C)cc1	< 2.5 nM
CC(C)[C@@H](C(=O)N1C[C@H](O)C[C@H]1C(=O)N[C@@H](C)c1ccc(C#N)cc1)c1cc(N2CCC(CN3CCC(O[C@H]4C[C@H](Oc5cc(N6C7CCCC6CN(c6cc(-c8ccccc8O)nnc6N)C7)ccn5)C4)CC3)CC2)no1	< 2.5 nM

----------
target: BRM (Homo sapiens); construct: Western Blot Screen of BRM Degradation in SW1573 Cells; endogenous in cells; host or cells: SW1573 cells; test: BRM degradation (Dmax and DC50) in SW1573 cells, Western blot screen / In-Cell Western screen; format: cell-based; settings: overnight (18-20 hours) treatment, read-out: Dmax (%)** (% degraded)
Consider the following compounds and their measured Dmax readings.

chemSmiles	Dmax
Cc1ncsc1-c1ccc([C@H](C)NC(=O)[C@@H]2C[C@@H](O)CN2C(=O)[C@@H](c2cc(N3CCC(CN4CCC5(CC4)CC(N4CCO[C@@H](CNC6CCN(c7cc(-c8ccccc8O)nnc7N)CC6)C4)C5)CC3)no2)C(C)C)cc1	> 75%
Cc1ncsc1-c1ccc([C@H](C)NC(=O)[C@@H]2C[C@@H](O)CN2C(=O)[C@@H](c2cc(N3CCC(CN4CCC5(CC4)CC(CN4CCC(Oc6cc(N7C8CCC7CN(c7cc(-c9ccccc9O)nnc7N)C8)ccn6)CC4)C5)CC3)no2)C(C)C)cc1	> 75%
CC(C)[C@@H](C(=O)N1C[C@H](O)C[C@H]1C(=O)N[C@@H](C)c1ccc(-c2ccnn2C)cc1)c1cc(N2CCC(CN3CCC(O[C@H]4C[C@H](N5CCOC6(CCN(c7cc(-c8ccccc8O)nnc7N)CC6)C5)C4)CC3)CC2)no1	> 75%
CC(C)[C@@H](C(=O)N1C[C@H](O)C[C@H]1C(=O)N[C@@H](C)c1ccc(-c2c(F)cnn2C)cc1)c1cc(N2CCC(CN3CCC(O[C@H]4C[C@H](Oc5cc(N6CCN(c7cc(-c8ccccc8O)nnc7N)CC6)ccn5)C4)CC3)CC2)no1	> 75%

----------
Recorded measurements of DC50, one per entry
molecular target: BRM (Homo sapiens); construct: Western Blot Screen of BRM Degradation in SW1573 Cells; endogenous in cells; host or cells: SW1573 cells; assay: BRM degradation (Dmax and DC50) in SW1573 cells, Western blot screen / In-Cell Western screen; type: cell-based; conditions: overnight (18-20 hours) treatment

compound	DC50
Cc1ncsc1-c1ccc([C@H](C)NC(=O)[C@@H]2C[C@@H](O)CN2C(=O)[C@@H](c2cc(N3CCC(CN4CCC5(CC4)CC(N4CCO[C@@H](C#CC(C)n6cc(-c7cc(-c8ccccc8O)nnc7N)cn6)C4)C5)CC3)no2)C(C)C)cc1 (some centres unmarked)	< 2.5 nM
Cc1ncsc1-c1ccc([C@H](C)NC(=O)[C@@H]2C[C@@H](O)CN2C(=O)[C@@H](c2cc(N3CCC(OC(=O)N4CCC(O[C@H]5C[C@H](Oc6cc(N7C8CCC7CN(c7cc(-c9ccccc9O)nnc7N)C8)ccn6)C5)CC4)CC3)no2)C(C)C)cc1	< 2.5 nM
CC(C)[C@@H](C(=O)N1C[C@H](O)C[C@H]1C(=O)N[C@@H](C)c1ccc(-c2scnc2C#CCOCCOCCOCCOCCOc2cc(N3C4CCC3CN(c3cc(-c5ccccc5O)nnc3N)C4)ccn2)cc1)N1Cc2ccccc2C1=O	≥ 30 nM
Cc1ncsc1-c1ccc([C@H](C)NC(=O)[C@@H]2C[C@@H](O)CN2C(=O)[C@@H](c2cc(N3CCC(CN4CCC5(CC4)CC(N4CCO[C@H](C(C)n6cc(-c7cc(-c8ccccc8O)nnc7N)cn6)C4)C5)CC3)no2)C(C)C)cc1 (some centres unmarked)	< 2.5 nM
Cc1ncsc1-c1ccc([C@H](C)NC(=O)[C@@H]2C[C@@H](O)CN2C(=O)[C@@H](c2cc(O[C@H]3C[C@H](CN4CCC(O[C@H]5C[C@H](N6CCOC7(CCN(c8cc(-c9ccccc9O)nnc8N)CC7)C6)C5)CC4)C3)no2)C(C)C)cc1	< 2.5 nM
Cc1ncsc1-c1ccc([C@H](C)NC(=O)[C@@H]2C[C@@H](O)CN2C(=O)[C@@H](c2cc(N3CCC(CN4CCC5(CC4)CC(N4CCO[C@H]([C@@H](C)n6cc(C#Cc7cc(-c8ccccc8O)nnc7N)cn6)C4)C5)CC3)no2)C(C)C)cc1	< 2.5 nM
Cc1ncsc1-c1ccc([C@H](C)NC(=O)[C@@H]2C[C@@H](O)CN2C(=O)[C@H](c2cc(N3CCN(C(=O)N4CCC(O[C@H]5C[C@H](Oc6cc(N7C8CCC7CN(c7cc(-c9ccccc9O)nnc7N)C8)ccn6)C5)CC4)CC3)no2)C(C)C)cc1	≥ 30 nM
Cc1ncsc1-c1ccc([C@H](C)NC(=O)[C@@H]2C[C@@H](O)CN2C(=O)[C@@H](c2cc(N3CCC(CN4CC[C@H](Oc5cc(N6C7CCC6CN(c6cc(-c8ccccc8O)nnc6N)C7)ccn5)[C@@H](F)C4)CC3)no2)C(C)C)cc1	< 2.5 nM

----------
Parameter DC50: see the listing below.
target: BRM (Homo sapiens, UniProt P51531); construct: Western Blot Screen of BRM Degradation in SW1573 Cells; endogenous in cells; host or cells: SW1573 cells; experiment: BRM degradation (Dmax and DC50) in SW1573 cells, Western blot screen / In-Cell Western screen; type: cell-based; details: overnight (18-20 hours) treatment
reportedMetric: DC50

compound	assaySystem	endpointResult
Cc1ncsc1-c1ccc([C@H](C)NC(=O)[C@@H]2C[C@@H](O)CN2C(=O)[C@@H](c2cc(N3CCN(C(=O)N4CC(Oc5cc(N6C7CCC6CN(c6cc(-c8ccccc8O)nnc6N)C7)ccn5)C4)CC3)no2)C(C)C)cc1	BRM (Homo sapiens, UniProt P51531)	2.5 to 10 nM
Cc1nccn1-c1ccc([C@H](C)NC(=O)[C@@H]2C[C@@H](O)CN2C(=O)[C@@H](c2cc(N3CCC(CN4CCC(O[C@H]5C[C@H](N6CCC(C(C)n7cc(C#Cc8cc(-c9ccccc9O)nnc8N)cn7)CC6)C5)CC4)CC3)no2)C(C)C)cc1 (stereo partly drawn)	BRM (Homo sapiens, UniProt P51531)	< 2.5 nM
Cc1ncsc1-c1ccc([C@H](C)NC(=O)[C@@H]2C[C@@H](O)CN2C(=O)[C@@H](c2cc(N3CCC(CN4CCC5(CC4)CC(N4CCOC6(CN(CC7C8CCC7CN(c7cc(-c9ccccc9O)nnc7N)C8)C6)C4)C5)CC3)no2)C(C)C)cc1 (stereo partly drawn)	BRM (Homo sapiens, UniProt P51531)	< 2.5 nM

----------
Each entry below carries its recorded DC50.
target: BRM (Homo sapiens); construct: Western Blot Screen of BRM Degradation in SW1573 Cells; endogenous in cells; host or cells: SW1573 cells; test: BRM degradation (Dmax and DC50) in SW1573 cells, Western blot screen / In-Cell Western screen; type: cell-based; settings: overnight (18-20 hours) treatment
reportedMetric: DC50

molecule	endpointResult
Cc1ncsc1-c1ccc([C@H](C)NC(=O)[C@@H]2C[C@@H](O)CN2C(=O)[C@@H](c2cc(N3CCC(CN4CCC(O[C@H]5C[C@H](N6CCC(C(C)(C)N7C8CCC7CN(c7cc(-c9ccccc9O)nnc7N)C8)CC6)C5)CC4)CC3)no2)C(C)C)cc1 [Compound 22]	< 2.5 nM
CC(C)[C@@H](C(=O)N1C[C@H](O)C[C@H]1C(=O)N[C@@H](C)c1ccc(-c2ccnn2C)cc1)c1cc(N2CCC(CN3CCC(Oc4cc(/C=C(\F)c5cc(-c6ccccc6O)nnc5N)ccn4)CC3)CC2)no1 [Compound 52]	< 2.5 nM
Cc1ncsc1-c1ccc([C@H](C)NC(=O)[C@@H]2C[C@@H](O)CN2C(=O)[C@@H](c2cc(N3CCC(CN4CC[C@H](OC(=O)N5CCN(c6cc(-c7ccccc7O)nnc6N)CC5)[C@H](F)C4)CC3)no2)C(C)C)cc1 [Compound 103]	< 2.5 nM
Cc1ncsc1-c1ccc([C@H](CC(=O)N2CCC(CN3CCC(O[C@H]4C[C@H](Oc5cc(N6C7CCC6CN(c6cc(-c8ccccc8O)nnc6N)C7)ccn5)C4)CC3)CC2)NC(=O)[C@@H]2C[C@@H](O)CN2C(=O)[C@@H](C(C)C)N2Cc3ccccc3C2=O)cc1 [Compound 37]	≥ 30 nM
Cc1ncsc1-c1ccc([C@H](C)NC(=O)[C@@H]2C[C@@H](O)CN2C(=O)[C@@H](c2cc(N3CCC(CN4CCC5(CC4)CC(N4CCO[C@@H](C(C)(C)N6C7CCC6CN(c6cc(-c8ccccc8O)nnc6N)C7)C4)C5)CC3)no2)C(C)C)cc1 [Compound 95]	2.5 to 10 nM
CC(C)[C@@H](C(=O)N1C[C@H](O)C[C@H]1C(=O)N[C@@H](C)c1ccc(C#N)cc1)c1cc(N2CCC(CN3CCC(O[C@H]4C[C@H](Oc5cc(N6CC7CC(C6)N7c6cc(-c7ccccc7O)nnc6N)ccn5)C4)CC3)CC2)no1 [Compound 26]	2.5 to 10 nM
Cc1ncsc1-c1ccc([C@H](C)NC(=O)[C@H]2C[C@@H](O)CN2C(=O)[C@@H](c2cc(N3CCC(CN4CCC(O[C@H]5C[C@H](OC(=O)N6CCN(c7cc(-c8ccccc8O)nnc7N)CC6)C5)CC4)CC3)no2)C(C)C)cc1 [Compound 45]	< 2.5 nM
Cc1ncsc1-c1ccc([C@H](C)NC(=O)[C@@H]2C[C@@H](O)CN2C(=O)[C@H](c2cc(N3CCC(C4(N5CCC(O[C@H]6C[C@H](Oc7cc(N8C9CCC8CN(c8cc(-c%10ccccc%10O)nnc8N)C9)ccn7)C6)CC5)CC4)CC3)no2)C(C)C)cc1 [Compound 13]	≥ 30 nM
Cc1ncsc1-c1ccc([C@H](C)NC(=O)[C@@H]2C[C@@H](O)CN2C(=O)[C@@H](c2cc(N3CCC(O[C@H]4CC[C@@H](Oc5cc(N6C7CCC6CN(c6cc(-c8ccccc8O)nnc6N)C7)ccn5)CC4)CC3)no2)C(C)C)cc1 [Compound 80]	< 2.5 nM
Cc1ncsc1-c1ccc([C@H](C)NC(=O)[C@@H]2C[C@@H](O)CN2C(=O)[C@@H](c2cc(N3CCC(O[C@H]4CC[C@H](Oc5cc(N6C7CCC6CN(c6cc(-c8ccccc8O)nnc6N)C7)ccn5)CC4)CC3)no2)C(C)C)cc1 [Compound 136]	< 2.5 nM
Cc1ncsc1-c1ccc([C@H](CC(=O)N2CCC(CN3CCC(O[C@H]4C[C@H](Oc5cc(N6C7CCC6CN(c6cc(-c8ccccc8O)nnc6N)C7)ccn5)C4)CC3)CC2)NC(=O)[C@@H]2C[C@@H](O)CN2C(=O)[C@H](C(C)C)N2Cc3ccccc3C2=O)cc1 [Compound 38]	< 2.5 nM
Cc1ncsc1-c1ccc([C@H](C)NC(=O)[C@@H]2C[C@@H](O)CN2C(=O)[C@@H](c2cc(N3CCC(CN4CCC(O[C@H]5C[C@H](N6CCC(C(C)n7ncc(-c8cc(-c9ccccc9O)nnc8N)c7F)CC6)C5)CC4)CC3)no2)C(C)C)cc1 (stereo partly drawn) [Compound 100]	< 2.5 nM
